Experiment: Pharmacokinetic characterization in healthy mice
Format: in vivo, CD-1 mice
Details: male, CD-1, plasma, iv; mouse, i.v. 0.7 mg/kg

{"columns": ["compound", "AUC(0-inf) (ng·h/mL)"],
 "data": [
  ["CC(C)C[C@@H]1NC(=O)[C@H](Cc2cccc(NC(=O)CCCS(N)(=O)=O)c2)NC(=O)[C@H](CC(=O)O)NC(=O)[C@H]2CCCN2C(=O)[C@H](CCC(=O)O)NC(=O)[C@@H](NC(=O)[C@H](CCC(N)=O)NC(=O)CN2CCN(C(=O)CN3CCN(CC(=O)O)CCN(CC(=O)O)CCN(CC(=O)O)CC3)CC2)CSCc2cccc(c2)CSC[C@@H](C(N)=O)NC(=O)[C@H](CO)NC(=O)[C@H](Cc2c[nH]c3ccccc23)NC(=O)[C@H]([C@@H](C)O)NC1=O [DPI-4452]", 424]
]}

This collection of values is drawn from patent US20250339569A1.
